Below, each entry is listed with its recorded TGI.
System: HT29 colon
method description: NCI tumour cell line growth inhibition, 48 h
observation type: TGI (µM)

smiles code: O=C(/C=C/c1ccc(Br)cc1)c1nc2ccccc2n1Cc1ccc(Br)cc1
bound type: >
readout value: 100

smiles code: Cc1ccc(C(=O)Nc2cc(-n3ccnc3C)cc(C(F)(F)F)c2)cc1C#Cc1cnc2cccnn12
bound type: =
readout value: 4.94

smiles code: CN(C(=O)c1ccc(C(C)(C)C)cc1)c1sc2c(c1C#N)CCC(=O)C2
bound type: =
readout value: 41

smiles code: C[C@@H]1CN(c2ccc3ncc(C#Cc4cncc(C(=O)Nc5ccc(CN6CCN(C)CC6)c(C(F)(F)F)c5)c4)n3n2)C[C@@H](C)O1
bound type: =
readout value: 0.979

###

System: MDA-MB-468 breast
method description: NCI tumour cell line growth inhibition, 48 h; in the data active = GI50 below about 0.43 µM; inactive = the rest
Outcome codes: yes (active), no (inactive)

compound: CCOC(=O)Nc1nc2c(F)c(F)c(F)cc2s1
classification: no
//
compound: O=C1NC(=O)c2c1c1c3ccccc3ccc1c1[nH]c3ccc(Br)cc3c21
classification: no
//
compound: Cc1cc(-c2ccccc2)c(C)n1Cc1ccc(Cl)cc1
classification: no
//
compound: C=C(C)[C@@H]1CC[C@]2(COS(C)(=O)=O)CC[C@]3(C)[C@H](CC[C@@H]4[C@@]5(C)CCCNC(C)(C)[C@@H]5CC[C@]43C)[C@@H]12
classification: no
//
compound: O=C(Cc1ccc(/C=C/C(=O)c2ncc[nH]2)cc1)Nc1ccc(Br)cc1
classification: no
//
compound: Oc1c(I)cc(I)cc1CNCCCN(Cc1ccccn1)Cc1ccccn1
classification: no
//
compound: O=C1C(N2CCN(c3ccccc3)CC2)=C(Cl)C(=O)c2ncccc21
classification: no
//
compound: COc1ccc(/C=C/c2nc(N3CCOCC3)c3cc(F)c(F)cc3n2)cc1OC
classification: no
//
compound: O=C1OCC2=C1C(c1cccc(F)c1)c1cc3c(cc1N2CCO)OCCO3 (configuration not stated)
classification: yes
//
compound: C[C@@H]1CN(Cc2ccc(/C=C/c3n[nH]c4ccc5nc(-c6cn[nH]c6C(F)(F)F)c6c(c5c34)CCCC6)cc2)C[C@H](C)O1
classification: no
//
compound: Cc1cc(N(CCCNc2ccnc3cc(Cl)ccc23)Cc2cccs2)nc(Cl)n1
classification: no
//
compound: O=C(c1ccc(O)cc1)c1ccc(C(=O)c2ccc(O)cc2)cc1
classification: no
//
compound: COc1ccc2c(c1)c(CC(=O)[Se]CCC#N)c(C)n2C(=O)c1ccc(Cl)cc1
classification: no
//
compound: Cc1cc(C)cc(Nc2nccc(-c3c(-c4ccc(F)cc4)ncn3C3CCNCC3)n2)c1
classification: no
//
compound: COc1ccc(C(=O)Nc2ncc(Cc3ccc(F)cc3)s2)cc1
classification: yes
//
compound: c1ccc(Cn2cc3c(c2)-c2oncc2CC3)cc1
classification: yes
//
compound: C[C@@H]1CN(c2ccc3ncc(C#Cc4cncc(C(=O)Nc5ccc(CN6CCN(C)CC6)c(C(F)(F)F)c5)c4)n3n2)C[C@@H](C)O1
classification: yes

###

Test system: KM12 colon
method description: NCI tumour cell line growth inhibition, 48 h

smiles code: CN(C(=O)c1ccc(C(C)(C)C)cc1)c1sc2c(c1C#N)CCC(=O)C2
TGI: 14.6 µM
//
smiles code: C[C@@H]1CN(c2ccc3ncc(C#Cc4cncc(C(=O)Nc5ccc(CN6CCN(C)CC6)c(C(F)(F)F)c5)c4)n3n2)C[C@@H](C)O1
TGI: 0.534 µM
//
smiles code: O=C(/C=C/c1ccc(Br)cc1)c1nc2ccccc2n1Cc1ccc(Br)cc1
TGI: > 100 µM
//
smiles code: Cc1ccc(C(=O)Nc2cc(-n3ccnc3C)cc(C(F)(F)F)c2)cc1C#Cc1cnc2cccnn12
TGI: 24.6 µM

###

System: MDA-MB-468 breast
method description: NCI tumour cell line growth inhibition, 48 h
observation type: TGI (µM)

compound: C[C@@H]1CN(Cc2ccc(/C=C/c3n[nH]c4ccc5nc(-c6cn[nH]c6C(F)(F)F)c6c(c5c34)CCCC6)cc2)C[C@H](C)O1
bound type: =
readout value: 22.2
//
compound: CCOC(=O)Nc1nc2c(F)c(F)c(F)cc2s1
bound type: >
readout value: 100
//
compound: O=C(c1ccc(O)cc1)c1ccc(C(=O)c2ccc(O)cc2)cc1
bound type: >
readout value: 100
//
compound: CC(=O)OC1CCC2(C)C(CCC3C2CCC2(C)C(C4=CC(=O)OC4)CCC32)C1 (stereo unspecified)
bound type: =
readout value: 44.9
//
compound: Cc1cc(N(CCCNc2ccnc3cc(Cl)ccc23)Cc2cccs2)nc(Cl)n1
bound type: =
readout value: 5.74
//
compound: Cc1ccc(C(=O)Nc2ccc(CN3CCN(C)CC3)c(C(F)(F)F)c2)cc1C#Cc1cncc2ncccc12
bound type: =
readout value: 18.5
//
compound: Cn1cc(-c2csc(-c3cn(CCN4CCOCC4)c4ccc(F)cc34)n2)c2cccnc21
bound type: =
readout value: 8.59
//
compound: CC(C)[C@@H](C(=O)O[C@@H]1/C=C/C(=O)O[C@@H](C)CCC/C=C/[C@@H]2C[C@H](O)C[C@H]21)[N+](C)(C)C
bound type: >
readout value: 100
//
compound: O=C1CC(c2ccccc2)Cc2nc3ccc(Cl)cc3cc21 (stereo unspecified)
bound type: >
readout value: 26.1
//
compound: COc1ccc(N2CCN(CC(=O)N3CCN(c4nnc(-c5ccccc5)c(-c5ccccc5)n4)CC3)CC2)cc1
bound type: =
readout value: 12.8
//
compound: Cc1cc2nc3ccc(N=Nc4ccc(N(C)C)cc4)cc3n(-c3ccccc3)c-2cc1=N
bound type: =
readout value: 0.199
//
compound: Cc1cc[c-]cc1.Fc1c[c-]c(-c2ccccn2)c(F)c1.N#CCC[PH+](CCC#N)c1ccccc1.[Pt+2]
bound type: =
readout value: 9.11
//
compound: O=C(Cc1ccc(/C=C/C(=O)c2ncc[nH]2)cc1)Nc1ccc(Br)cc1
bound type: =
readout value: 4.09
//
compound: Cc1ccc2c(n1)C(=O)C(Cl)=C(Nc1cccc(C(C)C)c1)C2=O
bound type: =
readout value: 2.61
//
compound: O=C1C(N2CCN(c3ccccc3)CC2)=C(Cl)C(=O)c2ncccc21
bound type: =
readout value: 3.16
//
compound: c1ccc(-c2n(Cc3ccc4ccccc4n3)c3ccccc3[n+]2Cc2ccc3ccccc3n2)cc1
bound type: =
readout value: 0.512

###

Test system: MALME-3M melanoma
method description: NCI tumour cell line growth inhibition, 48 h
observation type: TGI (nM)

smiles code: Cc1ccc(C(=O)Nc2cc(-n3ccnc3C)cc(C(F)(F)F)c2)cc1C#Cc1cnc2cccnn12
observation type: TGI
bound type: =
readout value: 1730
//
smiles code: O=C(/C=C/c1ccc(Br)cc1)c1nc2ccccc2n1Cc1ccc(Br)cc1
observation type: TGI
bound type: >
readout value: 100000
//
smiles code: CN(C(=O)c1ccc(C(C)(C)C)cc1)c1sc2c(c1C#N)CCC(=O)C2
observation type: TGI
bound type: =
readout value: 26200
//
smiles code: C[C@@H]1CN(c2ccc3ncc(C#Cc4cncc(C(=O)Nc5ccc(CN6CCN(C)CC6)c(C(F)(F)F)c5)c4)n3n2)C[C@@H](C)O1
observation type: TGI
bound type: =
readout value: 826

###

Test system: MDA-MB-468 breast
method description: NCI tumour cell line growth inhibition, 48 h
Below, each entry is listed with its recorded TGI.

smiles code: O=C1NC(=O)c2c1c1c3ccccc3ccc1c1[nH]c3ccc(Br)cc3c21
bound type: =
TGI (µM): 3.99

smiles code: Clc1ccccc1-c1nc2ccccc2[nH]1
bound type: >
TGI (µM): 100

smiles code: COc1cc(Nc2ncc3c(n2)-c2ccc(Cl)cc2C(c2c(F)cccc2OC)=NC3)ccc1C(=O)O
bound type: =
TGI (µM): 19.9

smiles code: COc1ccc(/C=C/c2nc(N3CCOCC3)c3cc(F)c(F)cc3n2)cc1OC
bound type: =
TGI (µM): 8.03

smiles code: C=C(C)[C@@H]1CC[C@]2(COS(C)(=O)=O)CC[C@]3(C)[C@H](CC[C@@H]4[C@@]5(C)CCCNC(C)(C)[C@@H]5CC[C@]43C)[C@@H]12
bound type: =
TGI (µM): 3.23

###

Test system: HOP-62 NSCLC
method description: NCI tumour cell line growth inhibition, 48 h
Below, each entry is listed with its recorded TGI.
observation type: TGI (µM)

smiles code: O=C(/C=C/c1ccc(Br)cc1)c1nc2ccccc2n1Cc1ccc(Br)cc1
bound type: >
readout value: 100
--
smiles code: Cc1ccc(C(=O)Nc2cc(-n3ccnc3C)cc(C(F)(F)F)c2)cc1C#Cc1cnc2cccnn12
bound type: =
readout value: 9.67
--
smiles code: C[C@@H]1CN(c2ccc3ncc(C#Cc4cncc(C(=O)Nc5ccc(CN6CCN(C)CC6)c(C(F)(F)F)c5)c4)n3n2)C[C@@H](C)O1
bound type: =
readout value: 0.968
--
smiles code: CN(C(=O)c1ccc(C(C)(C)C)cc1)c1sc2c(c1C#N)CCC(=O)C2
bound type: =
readout value: 32.1
